assay_system: human α4β7 integrin (Homo sapiens, UniProt P13612+P26010)
Construct: expressed in transfected cells; host or cells: K562 cells, stably transfected
Sequence (P13612 34-1032): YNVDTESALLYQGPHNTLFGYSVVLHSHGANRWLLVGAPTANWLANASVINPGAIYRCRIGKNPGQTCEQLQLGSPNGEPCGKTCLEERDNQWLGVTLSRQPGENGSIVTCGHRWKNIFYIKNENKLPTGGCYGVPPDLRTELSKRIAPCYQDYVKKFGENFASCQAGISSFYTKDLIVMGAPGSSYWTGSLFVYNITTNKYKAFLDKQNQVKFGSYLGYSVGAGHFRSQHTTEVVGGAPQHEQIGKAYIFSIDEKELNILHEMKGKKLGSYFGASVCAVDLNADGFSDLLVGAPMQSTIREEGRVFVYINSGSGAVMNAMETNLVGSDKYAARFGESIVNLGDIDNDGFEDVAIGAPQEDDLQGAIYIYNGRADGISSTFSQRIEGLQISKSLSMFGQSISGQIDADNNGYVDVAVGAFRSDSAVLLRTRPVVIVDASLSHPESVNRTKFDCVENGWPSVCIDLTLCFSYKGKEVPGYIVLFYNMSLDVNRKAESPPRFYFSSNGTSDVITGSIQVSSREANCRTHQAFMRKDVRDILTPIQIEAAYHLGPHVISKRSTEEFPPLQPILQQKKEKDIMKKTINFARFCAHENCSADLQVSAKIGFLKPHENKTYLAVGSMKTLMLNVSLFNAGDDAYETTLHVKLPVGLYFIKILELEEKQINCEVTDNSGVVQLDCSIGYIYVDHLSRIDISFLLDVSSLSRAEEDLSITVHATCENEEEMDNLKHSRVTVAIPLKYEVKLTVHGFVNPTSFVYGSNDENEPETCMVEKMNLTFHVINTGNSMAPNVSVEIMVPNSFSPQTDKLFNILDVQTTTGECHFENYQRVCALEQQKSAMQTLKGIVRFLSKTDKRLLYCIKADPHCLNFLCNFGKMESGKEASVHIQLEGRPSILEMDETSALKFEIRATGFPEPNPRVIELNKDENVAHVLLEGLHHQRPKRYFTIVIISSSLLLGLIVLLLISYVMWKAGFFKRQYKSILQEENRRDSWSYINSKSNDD
Sequence (P26010 20-798): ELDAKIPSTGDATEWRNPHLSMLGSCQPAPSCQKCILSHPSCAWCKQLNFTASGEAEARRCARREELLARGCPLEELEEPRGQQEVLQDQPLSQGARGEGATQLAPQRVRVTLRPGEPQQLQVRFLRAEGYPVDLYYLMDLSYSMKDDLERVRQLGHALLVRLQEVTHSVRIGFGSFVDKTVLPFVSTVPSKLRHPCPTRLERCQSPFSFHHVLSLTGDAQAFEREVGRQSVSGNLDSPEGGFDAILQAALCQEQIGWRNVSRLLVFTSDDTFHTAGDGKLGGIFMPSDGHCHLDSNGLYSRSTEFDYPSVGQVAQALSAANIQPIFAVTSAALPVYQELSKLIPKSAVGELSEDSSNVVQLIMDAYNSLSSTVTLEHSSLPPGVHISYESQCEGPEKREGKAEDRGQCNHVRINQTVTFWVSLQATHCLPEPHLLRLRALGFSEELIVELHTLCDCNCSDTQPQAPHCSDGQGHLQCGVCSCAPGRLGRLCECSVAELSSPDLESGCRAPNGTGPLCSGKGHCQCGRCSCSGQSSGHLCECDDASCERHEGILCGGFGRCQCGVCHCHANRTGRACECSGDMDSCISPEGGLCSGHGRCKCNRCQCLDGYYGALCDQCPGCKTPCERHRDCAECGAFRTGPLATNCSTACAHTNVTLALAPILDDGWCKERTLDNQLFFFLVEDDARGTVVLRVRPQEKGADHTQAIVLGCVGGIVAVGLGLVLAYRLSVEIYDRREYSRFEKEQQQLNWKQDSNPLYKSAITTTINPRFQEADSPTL
protocol_details: α4β7-K562 Cell Adhesion Assay (α4β7 Mediated Adhesion/MAdCAM-1)
Format: cell-based
condition_notes: α4β7-K562 cell adhesion to hMAdCAM-1; read-out: α4β7 IC50
So basically, if IC50 comes in under 3 nM it's yes (1), and if it's 3 nM or more it's no (0).

• COc1cnn(C)c(=O)c1-c1ccc(C[C@H](NC(=O)C2(NC3CCC4(CC3)OCCO4)CC2)C(=O)O)cc1 [Cpd 224] = no (0)
• COc1cnn(CCO)c(=O)c1-c1ccc(C[C@H](NC(=O)c2c(Cl)cccc2Cl)C(=O)O)cc1 [Cpd 15] = yes (1)
• COc1cnn(-c2ccccc2)c(=O)c1-c1ccc(C[C@H](NC(=O)c2c(Cl)cccc2Cl)C(=O)O)cc1 [Cpd 56] = no (0)
• COc1cnn(C)c(=O)c1-c1ccc(C[C@H](NC(=O)[C@@H](O)C(C)C)C(=O)O)cc1 [Cpd 127] = no (0)
• COc1cnn(C)c(=O)c1-c1ccc(C[C@H](NC(=O)[C@@H](C(C)C)N(C)C(=O)CCc2ccccc2)C(=O)O)cc1 [Cpd 90] = no (0)

###

assay_system: human α4β7 integrin (Homo sapiens, UniProt P13612+P26010)
Construct: expressed in transfected cells; host or cells: K562 cells, stably transfected
protocol_details: α4β7-K562 Cell Adhesion Assay (α4β7 Mediated Adhesion/MAdCAM-1)
Type: cell-based
condition_notes: α4β7-K562 cell adhesion to hMAdCAM-1; read-out: α4β7 IC50
Experimental: α4β7-K562 Cell Adhesion Assay (α4β7 Mediated Adhesion/MAdCAM-1) M2 anti-FLAG Antibody Coated 96-well plates (Sigma) were coated for 1 hour at 4° C. with 2-8 μl/well recombinant FLAG-hMAdCAM-1 contained in 100 μL of Dulbecco's PBS, pH 7.4, with 1% BSA and 1 mM Mn ^+2 (PBS-BSA-Mn). Plates were washed once with PBS-BSA-Mn. Buffer was removed and compounds to be tested (50 μL) were added at 2× concentration. […]
pIC50: −log10 of the molar value.
Label met when pIC50 is at or above 7; otherwise label not met.

• O=C(N[C@@H](Cc1ccc(-c2c(Cl)cnn(CC3CC3)c2=O)cc1)C(=O)O)c1c(Cl)cccc1Cl [Cpd 93] = met
• CN1CCC(Oc2cnn(C)c(=O)c2-c2ccc(C[C@H](NC(=O)c3c(Cl)cccc3Cl)C(=O)O)cc2)C1 (some centres unmarked) [Cpd 12] = met
• COc1cnn(C)c(=O)c1-c1ccc(CC(NC(=O)c2c(Cl)cccc2Cl)C(=O)OCCO)cc1 (centres unmarked) [Cpd 97] = met
• COc1cnn(C)c(=O)c1-c1ccc(C[C@H](NC(=O)c2cnoc2C)C(=O)O)cc1 [Cpd 147] = not met
• COc1cnn(C)c(=O)c1-c1ccc(C[C@H](NC(=O)C(C)(C)O)C(=O)O)cc1 [Cpd 185] = not met
• COc1cnn(CCO)c(=O)c1-c1ccc(C[C@@H](CO)NC(=O)c2c(Cl)cccc2Cl)cc1 [Cpd 194] = not met
• Cn1ncc(OC2CCCC2)c(-c2ccc(C[C@H](NC(=O)c3c(Cl)cccc3Cl)C(=O)O)cc2)c1=O [Cpd 60] = met

Hey, just so you know, these numbers are from patent US20050192279A1.
